B1: Twister Ribozyme (parent)
chain: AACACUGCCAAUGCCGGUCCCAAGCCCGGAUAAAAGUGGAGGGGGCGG

# Variants of: B1
# Measurement description: self-cleavage, relative activity (ratio to wild type); higher = more cleavage; co-transcriptional
List of self-cleavage values.

>  <Variant description>
C8U U31C

>  <self-cleavage>
0.713

$$$$
>  <Variant description>
C5U G45C

>  <self-cleavage>
0.239

$$$$
>  <Variant description>
U31G G42A

>  <self-cleavage>
0.497

$$$$
>  <Variant description>
A11C C20A

>  <self-cleavage>
0.129

$$$$
>  <Variant description>
A4U U12G

>  <self-cleavage>
0.168

$$$$
>  <Variant description>
U37C G44U

>  <self-cleavage>
0.768

$$$$
>  <Variant description>
C20A C27U

>  <self-cleavage>
0.0852

$$$$
>  <Variant description>
U31C G43A

>  <self-cleavage>
0.323

$$$$
>  <Variant description>
G13U C26A

>  <self-cleavage>
0.129

$$$$
>  <Variant description>
A4G G7U

>  <self-cleavage>
0.052

$$$$
>  <Variant description>
C15G G41C

>  <self-cleavage>
0.0823

$$$$
>  <Variant description>
G36A G38A

>  <self-cleavage>
0.359

$$$$
>  <Variant description>
C27A A32G

>  <self-cleavage>
0.483

$$$$
>  <Variant description>
A2G G43U

>  <self-cleavage>
0.119

$$$$
>  <Variant description>
A33G G42C

>  <self-cleavage>
0.268

$$$$
>  <Variant description>
G16A A30G

>  <self-cleavage>
0.958

$$$$
>  <Variant description>
A30U G39U

>  <self-cleavage>
0.212

$$$$
>  <Variant description>
C3U U6C

>  <self-cleavage>
0.0788

$$$$
>  <Variant description>
A22U G29A

>  <self-cleavage>
0.644

$$$$
>  <Variant description>
C20G C46G

>  <self-cleavage>
0.126

$$$$
>  <Variant description>
C15G G45C

>  <self-cleavage>
0.0924

$$$$
>  <Variant description>
A30C G43U

>  <self-cleavage>
0.121

$$$$
